From: patent US20060223874A1

Target: Wild Type HIV-RT (Human immunodeficiency virus type 1 group M subtype B)
Experiment: HIV Reverse Transcriptase Assay: Inhibitor IC50 Determination
Details: purified recombinant HIV-1 RT, poly(rA)/oligo(dT)16 template-primer, 37° C. for 30 min
value-type: pIC50
Convention used: pIC50 is expressed as -log10 of the molar concentration.

COc1ccc(Cc2n[nH]c(=O)n2C)c(F)c1Oc1cc(Cl)cc(C#N)c1 = 7.34

// query pIC50 value for entry `COc1ccc(Cc2n[nH]c(=O)n2C)c(F)c1Oc1cc(C#N)cc(C(F)F)c1`
7.89
